- Target: T1, Anti-CD28 Fab (SEQ ID NOs: 696, 697)
- T1 construct: In the phage ELISA the Fab was biotinylated and captured on neutravidin coated plates
- T1 sequence (VH, as listed by the source, chain 1 of 2): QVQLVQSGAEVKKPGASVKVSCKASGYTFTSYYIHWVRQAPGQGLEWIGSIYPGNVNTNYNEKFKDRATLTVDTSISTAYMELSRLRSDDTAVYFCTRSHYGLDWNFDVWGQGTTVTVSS
- T1 sequence (VL, as listed by the source, chain 2 of 2): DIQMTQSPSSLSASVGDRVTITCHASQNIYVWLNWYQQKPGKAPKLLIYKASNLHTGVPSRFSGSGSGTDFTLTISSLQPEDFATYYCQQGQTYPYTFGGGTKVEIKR
- Method Description: phage ELISA on captured anti-CD28 Fab; wells pre-incubated with CD28 antigen as competitor;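 also: clonal phage from crude supernatants added to wells pretreated with blocking buffer with or without CD28, bound phage read by ELISA with HRP-conjugated anti-M13 antibody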
// reported Phage binding ELISA, Anti-CD28 Fab signal in the presence of CD28 for each item listed
Outcome Measure: Phage binding ELISA, Anti-CD28 Fab signal in the presence of CD28

# Binder, Obs Value
records = [
    ("QCSAGATYAWPFCL [Phage-1615]", 0.08),
    ("TCAAGATYEWPSCL [Phage-1612]", 0.09),
    ("SCSAGAMYTWPTCL [Phage-1613]", 0.08),
    ("SCAAGATYTWPFCL [Phage-1617]", 0.07),
    ("TCAAGVPYKWPPCL [Phage-1616]", 0.06),
    ("TCAAGAAYTWPVCF [Phage-1609]", 0.08),
    ("SCAEVFNYVWPFCF [Phage-1608]", 0.07),
    ("SCAAGAMWEWPKCF [Phage-1610]", 0.09),
]

Values from patent US20260242478A1
